The reported measurements were obtained from patent EP4745134A1.

- Tested on: HCT116 MTAP KO cells
- assay details: Inhibitory activity against cell proliferation (CellTiter Glo, 6 days), HCT116 MTAP KO
- Type: cell-based
- reported conditions: ratio of IC50 HCT116-WT / HCT116 MTAP KO
- Experimental: HCT116-WT (ATCC, CCL-247) and HCT116 MTAP KO (Nanjing Cobioer, CBP75002) cells were seeded into white low-transparency sterile 96-well cell culture plates at a density of 250 cells per well respectively, and the culture medium was McCoy's 5A Medium+10% FBS. The plates were placed under the condition of 37°C and 5% CO2 to be cultured overnight. […] The IC50 values for inhibition of the compounds on cell viability were calculated in X1fit 5.0 software. […]
Listing of recorded Selectivity HCT 116-WT/ HCT116 MTAP KO by entry.
metric name: Selectivity HCT 116-WT/ HCT116 MTAP KO

CN(c1ncccn1)N(Cc1ccc(-c2cnn(C(F)(F)F)c2)cn1)C(=O)c1ccc2nc(N)c3cnn(C)c3c2c1; 16.15
CC1CN(C(=O)c2cc3c(cc2Cl)nc(N)c2cnn(C)c23)N(c2cccc(F)c2F)C1 (stereo not shown); 23.71
Cc1cc2cc(C(=O)N(Cc3ccc(Br)cn3)N(C)c3ncccc3F)ccc2nc1N; 35.85
Cc1cc2cc(C(=O)N(Cc3ccc(C(F)(F)F)cn3)N(C)c3nccc4ccncc34)ccc2nc1N; 13.60
C=C1CN(C(=O)c2cc3c(cc2Cl)nc(N)c2cnn(C)c23)N(c2ncccc2F)C1; 33.64
Cc1cc2cc(C(=O)N(Cc3ccc(-c4cc[nH]n4)cn3)N(C)c3ncccn3)ccc2nc1N; 19.43
CN(c1ncccn1)N(Cc1ccc(-c2cnn(C(F)(F)F)c2)cn1)C(=O)c1ccc2nc(N)c(CO)cc2c1; 16.31
